- Tested on: 624824-186-R-J3-PDC multicell spheroids, viability;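 also: luminescent signal used as a stand-in for spheroid viability; spheroids exposed to agents for seven days before luminescence read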
- Measurement Protocol: Anticancer human tumor 624824-186-R-J3-PDC patient-derived colon adenocarcinoma cell line growth inhibition [PI3K]; active = viability on the fitted dose curve at most 10% of control; inactive = the rest
- Applied Conditions: second compound 0.00316 µM; first compound 10 µM
- From the text: Combinatorial screen of targeted agents with the PI3K inhibitors inavolisib, alpelisib, duvelisib, and copanlisib in multi-cell type tumor spheroids A high-throughput screen of multi-cell type tumor spheroids was designed to identify active combinations of targeted small molecules and PI3K pathway inhibitors. […] Compounds. […] If the clinical Cmax for an agent had not been determined, the highest concentration tested was 10 microM. […]
Labels: active, inactive

| Molecule | Tested System | Class Assignment |
| --- | --- | --- |
| CNC(=O)c1ccc(N2C(=S)N(c3ccc(C#N)c(C(F)(F)F)c3)C(=O)C2(C)C)cc1F + CC(Nc1ccc2c(c1)OCCn1cc(N3C(=O)OCC3C(F)F)nc1-2)C(N)=O | 624824-186-R-J3-PDC multicell spheroids, viability | inactive |
| C[C@@H](NC(=O)c1ncnc(N)c1Cl)c1ncc(C(=O)Nc2cc(C(F)(F)F)c(Cl)cn2)s1 + COc1c(OCCCN2CCOCC2)ccc2c3n(c(=NC(=O)c4cnc(N)nc4)nc12)CCN3 | 624824-186-R-J3-PDC multicell spheroids, viability | inactive |
| CC1(C)CCC(Nc2ncc(C(F)(F)F)c(-c3c[nH]c4c(P(C)(C)=O)c(C#N)ccc34)n2)CN1 (stereo not given) + CC(Nc1ccc2c(c1)OCCn1cc(N3C(=O)OCC3C(F)F)nc1-2)C(N)=O | 624824-186-R-J3-PDC multicell spheroids, viability | active |
| Cn1nccc1Nc1nccc(-c2ccn(C(CO)c3ccc(Cl)c(F)c3)c(=O)c2)n1 (stereo not given) + CC(Nc1ccc2c(c1)OCCn1cc(N3C(=O)OCC3C(F)F)nc1-2)C(N)=O | 624824-186-R-J3-PDC multicell spheroids, viability | inactive |
| Cn1ncc(Cl)c1-c1cc(C(=O)NC(CN)Cc2cccc(F)c2)sc1Cl (stereo not given) + COc1c(OCCCN2CCOCC2)ccc2c3n(c(=NC(=O)c4cnc(N)nc4)nc12)CCN3 | 624824-186-R-J3-PDC multicell spheroids, viability | inactive |
